Tested System: T1, TNF-alpha (human, UniProt P01375 77-233)
T1 construct: also called TNFα; TNF-α
T1 sequence (P01375 77-233 limits assumed): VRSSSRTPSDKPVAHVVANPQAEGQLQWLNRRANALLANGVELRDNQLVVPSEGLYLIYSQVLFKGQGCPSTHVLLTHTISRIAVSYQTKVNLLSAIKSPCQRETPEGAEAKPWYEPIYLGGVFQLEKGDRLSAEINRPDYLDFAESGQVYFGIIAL
Test Name: phage ELISA

>  <Binder>
I078D02 (scFv) scFv: QVQLQQSGAEVKKPGASVKVSCKASGYTFTSYGISWVRQAPGQGLEWMGWISAYNGNTNYAQKLQGRVTMTTDTSTSTAYMELRSLRSDDTAVYYCARVYYDILTGYNLFFDYWGKGTMVTVSSGGGGSGGGGSGGGGSQSVLTQPASVSGSPGQSITISCTGTSSDVGGYNYVSWYQQHPGKAPKLMIYEGSKRPSGVSNRFSGSKSGNTASLTISGLQAEDEADYYCSSYTTRSTRVFGGGTKLTVLG

>  <binding result>
no binding

$$$$
>  <Binder>
I031F09 (scFv) scFv: QVQLVQSGAEVKKPGASVKVSCTVSGDSFSRHGISWVRQAPGQGLEWMGWISVYNGDTKYAQKVQGRVTMTTDTSTNTVYMELRRLRSDDTAVYYCARDEGRDLLTGYYWPNFFDSWGRGTLVTVSSGGGGSGGGGSGGGGSALSYVLTQPPSASGTPGQRVTISCSGSRPNIGGNTVNWYQQLPGAAPKLLIYSNSQRPSGVPDRFSGSKYGTSASLAISGLQSDDEADYYCAAWDDSLTGPVFGGGTKLTVLG

>  <binding result>
no binding

$$$$
